Tested on: Escherichia coli TOP10
Assay: shrunken log2 fold change of peptide-encoding DNA abundance (4.5 h post-induction vs induction); higher = less antimicrobial activity (less host growth inhibition)
Conditions: time post-induction: 4.5 h; library: site-saturation at positions 5, 18, 19, 20
Readout: shrunken log2 fold change

Before answering, review these 5 worked examples.
RRIRARPPRLPRPRPRPMLRPRP = 0.155
RRIRRRPPRLPRPRPRPEDMPRP = 0.296
RRIRTRPPRLPRPRPRPCWQPRP = 0.0902
RRIRCRPPRLPRPRPRPRIRPRP = 0.0722
RRIRERPPRLPRPRPRPKVVPRP = -0.0857

Entry RRIRIRPPRLPRPRPRPTNRPRP needs its shrunken log2 fold change filled in; supply it. -0.326

Identify measured shrunken log2 fold change corresponding to RRIRKRPPRLPRPRPRPTETPRP 0.114

Recall and state the measured shrunken log2 fold change for RRIRWRPPRLPRPRPRPFQTPRP . -0.00783

Tell me shrunken log2 fold change reported for RRIRHRPPRLPRPRPRPWIIPRP 0.00956

Give shrunken log2 fold change for the following sequence: RRIRARPPRLPRPRPRPGSKPRP 0.227

Read the entry RRIRVRPPRLPRPRPRPDHKPRP and write its reported shrunken log2 fold change. -0.0198

Return value of shrunken log2 fold change for input RRIRHRPPRLPRPRPRPAYKPRP , no commentary. -0.102

Supply measured shrunken log2 fold change of RRIRHRPPRLPRPRPRPQSVPRP in your reply. -0.267

Quote shrunken log2 fold change reported for RRIRWRPPRLPRPRPRPHVFPRP please. -0.154

Give reported shrunken log2 fold change value for RRIRNRPPRLPRPRPRPGDRPRP 0.0819

Quick one: give measured shrunken log2 fold change for RRIRNRPPRLPRPRPRPYHRPRP -0.121

Using the record for RRIRARPPRLPRPRPRPNDEPRP , state its measured shrunken log2 fold change. 0.361

Input RRIRGRPPRLPRPRPRPHGYPRP , output reported shrunken log2 fold change. -0.0362

Given RRIRMRPPRLPRPRPRPHWYPRP , respond with its shrunken log2 fold change. -0.484

Please list shrunken log2 fold change recorded for the sequence RRIRVRPPRLPRPRPRPDELPRP -0.0586

Look up and state reported shrunken log2 fold change for RRIRSRPPRLPRPRPRPPTHPRP 0.197

# return recorded shrunken log2 fold change for entry RRIRSRPPRLPRPRPRPTLTPRP 0.206

Give shrunken log2 fold change for RRIRVRPPRLPRPRPRPYIPPRP -1

Quick one: give measured shrunken log2 fold change for RRIRRRPPRLPRPRPRPQDIPRP -1.16

Specify reported shrunken log2 fold change for the sequence shown: RRIRSRPPRLPRPRPRPLLRPRP -0.107

Report shrunken log2 fold change for RRIRCRPPRLPRPRPRPCANPRP 0.00335

Look up and report measured shrunken log2 fold change for this entry: RRIRHRPPRLPRPRPRPNNAPRP -0.11

Return value of shrunken log2 fold change for input RRIRNRPPRLPRPRPRPHRAPRP , no commentary. 0.264

Please list shrunken log2 fold change recorded for the sequence RRIRFRPPRLPRPRPRPHAGPRP -0.024

Input RRIRGRPPRLPRPRPRPAMTPRP , output reported shrunken log2 fold change. 1.48

---

Test system: Escherichia coli TOP10;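 note: peptides expressed intracellularly from a pBAD plasmid library in pooled LB shake-flask culture, induced with 0.3% L-arabinose, DNA abundance read by NGS, three biological replicates, DESeq2 with apeglm shrinkage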
Assay: shrunken log2 fold change of peptide-encoding DNA abundance (4.5 h post-induction vs induction); higher = less antimicrobial activity (less host growth inhibition)
Settings: time post-induction: 4.5 h; library: site-saturation at positions 5, 18, 19, 20
Returns fulfilled if the recorded shrunken log2 fold change is greater than or equal to -0.03, and not fulfilled otherwise.

Here are 5 sequences together with their reported answers.
RRIRSRPPRLPRPRPRPHEKPRP = fulfilled
RRIRLRPPRLPRPRPRPLDSPRP = fulfilled
RRIRHRPPRLPRPRPRPKVCPRP = not fulfilled
RRIRWRPPRLPRPRPRPGGLPRP = fulfilled
RRIRIRPPRLPRPRPRPTICPRP = not fulfilled

Now let's try a different one.
API: above_or_equal(metric=shrunken log2 fold change, cutoff=-0.03) for item RRIRKRPPRLPRPRPRPLWMPRP fulfilled
